# TARGET_OR_TEST_SYSTEM: EGFR L858R (Homo sapiens, UniProt P00533, L858R)
# Construct: purchased Carna Bio
# Sequence (P00533 25-1210 L858R): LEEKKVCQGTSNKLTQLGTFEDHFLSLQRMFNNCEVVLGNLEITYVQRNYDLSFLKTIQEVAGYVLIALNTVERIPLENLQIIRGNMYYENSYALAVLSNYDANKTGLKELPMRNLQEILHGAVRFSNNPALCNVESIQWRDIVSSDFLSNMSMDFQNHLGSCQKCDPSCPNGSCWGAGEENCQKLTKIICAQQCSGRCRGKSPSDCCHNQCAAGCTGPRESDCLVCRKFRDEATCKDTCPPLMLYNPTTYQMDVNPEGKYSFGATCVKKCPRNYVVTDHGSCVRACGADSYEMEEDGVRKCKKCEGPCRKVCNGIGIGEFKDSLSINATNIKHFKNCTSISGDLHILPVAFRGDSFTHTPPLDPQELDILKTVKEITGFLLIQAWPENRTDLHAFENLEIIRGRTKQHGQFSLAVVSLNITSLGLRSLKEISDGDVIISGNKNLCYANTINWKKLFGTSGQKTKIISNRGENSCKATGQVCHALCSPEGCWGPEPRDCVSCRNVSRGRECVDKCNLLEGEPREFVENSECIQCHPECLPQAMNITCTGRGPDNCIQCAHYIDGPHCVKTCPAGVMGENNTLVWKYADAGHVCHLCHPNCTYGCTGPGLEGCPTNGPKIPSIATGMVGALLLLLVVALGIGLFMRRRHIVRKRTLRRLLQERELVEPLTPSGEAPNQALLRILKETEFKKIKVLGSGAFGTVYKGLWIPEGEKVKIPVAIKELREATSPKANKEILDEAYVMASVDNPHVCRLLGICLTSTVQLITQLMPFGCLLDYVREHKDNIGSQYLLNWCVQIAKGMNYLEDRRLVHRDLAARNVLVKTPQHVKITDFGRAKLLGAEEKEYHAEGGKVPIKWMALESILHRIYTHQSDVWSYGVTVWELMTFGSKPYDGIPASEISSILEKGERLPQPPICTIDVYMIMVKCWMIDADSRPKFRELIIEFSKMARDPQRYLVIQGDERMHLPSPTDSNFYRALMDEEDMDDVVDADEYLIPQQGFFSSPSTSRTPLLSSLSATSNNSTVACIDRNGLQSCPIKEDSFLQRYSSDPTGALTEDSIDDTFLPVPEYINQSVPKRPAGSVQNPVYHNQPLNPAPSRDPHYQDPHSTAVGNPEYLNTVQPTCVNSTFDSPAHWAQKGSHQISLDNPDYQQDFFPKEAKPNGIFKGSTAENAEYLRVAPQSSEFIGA
# PROTOCOL_DESCRIPTION: Inhibition of EGFR L858R biochemical enzymatic activity (HTRF)
# TEST_SETTINGS: 1 mM ATP, 1 h, room temperature, read-out: IC50 (nM) @L858R
Listing of recorded IC50 by entry.
Number only, in nM; omit the unit.

Solved cases (2 shown):
>>> measured_result("CN(C)[C@H]1CCN(c2ccc3nc4n(c3c2)C23CCC(CC2)CN(CCOc2c(cnn2C)-c2cc(cn(C)c2=O)C(=O)N4)C3)C1")
177
>>> measured_result("CN(C)CCN(C)c1ccc2nc3n(c2c1)C12CCC(CC1)CN(CCOc1c(cnn1C)-c1cc(cn(C)c1=O)C(=O)N3)C2")
139

Task: Fill in the recorded IC50 for this compound, with EGFR L858R (Homo sapiens, UniProt P00533, L858R) as test system: CCC1CCCOc2c(cnn2C)-c2cc(cn(C)c2=O)C(=O)Nc2nc3ccc(N4CCN(C)CC4)cc3n2C1 (single isomer, unassigned) [Example A16B]
Output: 28
